Would you mind telling me the reported pIC50 of each entry?
# target: KRasG12C (M1-K169, biotinylated on the N-terminus) (Homo sapiens (Human), UniProt P01116, G12C)
# experimental.details: Covalent competition assay: scintillation proximity assay (SPA) quantifying covalent modification of KRASG12C
# protocol.conditions: competition with radiolabeled covalent probe (Compound B/Compound A), 2 hours incubation, 10 nM KRasG12C
Numbers only, as −log10 of the molar value.

Example cases with answers are listed next.
| compound | meas.value |
| --- | --- |
| C=CC(=O)N1CC2(CC(n3nc(N4CCN(C[C@@H]5COCCO5)C[C@@]4(C)C(F)F)c(-c4c(Cl)c(Cl)cc5[nH]ncc45)c3C)C2)C1 (single isomer, unassigned) [Example 105b] | 7.72 |
| C=CC(=O)N1CC2(CC(n3nc(N4CCN(C5COC5)C[C@]4(C)CCOC)c(-c4c(Cl)c(C)cc5[nH]ncc45)c3C)C2)C1 (single isomer, unassigned) [Example 86b] | 8.10 |

Now take the following compound into account.
Query :: Identify the reported pIC50 for the following entry. C=CC(=O)N1CC2(CC(n3nc(N4CCN(CCOC)CC4(C)C)c(-c4c(Cl)c(C)cc5[nH]ncc45)c3C)C2)C1 (single isomer, unassigned) [Example 170b]
Result :: 7.22
